# Organism: Homo sapiens
# experiment.summary: Selectivity ratio of Ki for human dopamine D2 receptor to Ki for human dopamine D3 receptor
readout: Ratio Ki
Reply: number alone, nothing else.

The reported Ratio Ki of the compound `CCCCN1CCN(c2cccc(Cl)c2Cl)CC1` was 2

The reported Ratio Ki of the compound O=C(NCCC(O)CN1CCN(c2cccc(Cl)c2Cl)CC1)c1cnc2ccccc2c1 (racemic) was 63

The reported Ratio Ki of the compound `CC[C@@H](O)CN1CCN(c2cccc(Cl)c2Cl)CC1` was 5

The reported Ratio Ki of the compound `C[C@H](O)CN1CCN(c2cccc(Cl)c2Cl)CC1` was 4

====

D(3) dopamine receptor (Homo sapiens, UniProt P35462) measurements of Ki, listed per entry.
Sequence (P35462 whole entry): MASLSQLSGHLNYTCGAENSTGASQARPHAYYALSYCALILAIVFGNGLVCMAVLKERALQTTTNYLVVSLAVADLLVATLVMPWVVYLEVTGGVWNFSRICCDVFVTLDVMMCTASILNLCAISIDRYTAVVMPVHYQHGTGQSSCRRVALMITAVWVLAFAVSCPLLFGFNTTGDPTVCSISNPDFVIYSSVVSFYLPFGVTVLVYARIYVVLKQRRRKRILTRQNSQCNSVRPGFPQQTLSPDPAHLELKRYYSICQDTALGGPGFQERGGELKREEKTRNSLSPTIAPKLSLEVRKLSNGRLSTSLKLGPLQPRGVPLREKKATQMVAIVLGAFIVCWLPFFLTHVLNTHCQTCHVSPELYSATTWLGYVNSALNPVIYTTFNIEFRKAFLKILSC
Your answer is read as nM, so omit the unit and give the number.

The reported Ki of the compound `CC[C@H](O)CN1CCN(c2cccc(Cl)c2Cl)CC1` was 34.3

The reported Ki of the compound `CC[C@@H](O)CN1CCN(c2cccc(Cl)c2Cl)CC1` was 119

The reported Ki of the compound `C[C@@H](O)CN1CCN(c2cccc(Cl)c2Cl)CC1` was 373

The reported Ki of the compound `C[C@H](O)CN1CCN(c2cccc(Cl)c2Cl)CC1` was 75.2

The reported Ki of the compound O=C(NCCC(O)CN1CCN(c2cccc(Cl)c2Cl)CC1)c1cnc2ccccc2c1 (racemic) was 4.26

The reported Ki of the compound `O=C(NCC[C@H](O)CN1CCN(c2cccc(Cl)c2Cl)CC1)c1cnc2ccccc2c1` was 23.4

The reported Ki of the compound `O=C(NCCCCN1CCN(c2cccc(Cl)c2Cl)CC1)c1cnc2ccccc2c1` was 0.172

The reported Ki of the compound `O=C(NCC[C@@H](O)CN1CCN(c2cccc(Cl)c2Cl)CC1)c1cnc2ccccc2c1` was 4.12

====

# target.or.system: D(2) dopamine receptor (Homo sapiens, UniProt P14416)
# Sequence (P14416 whole entry): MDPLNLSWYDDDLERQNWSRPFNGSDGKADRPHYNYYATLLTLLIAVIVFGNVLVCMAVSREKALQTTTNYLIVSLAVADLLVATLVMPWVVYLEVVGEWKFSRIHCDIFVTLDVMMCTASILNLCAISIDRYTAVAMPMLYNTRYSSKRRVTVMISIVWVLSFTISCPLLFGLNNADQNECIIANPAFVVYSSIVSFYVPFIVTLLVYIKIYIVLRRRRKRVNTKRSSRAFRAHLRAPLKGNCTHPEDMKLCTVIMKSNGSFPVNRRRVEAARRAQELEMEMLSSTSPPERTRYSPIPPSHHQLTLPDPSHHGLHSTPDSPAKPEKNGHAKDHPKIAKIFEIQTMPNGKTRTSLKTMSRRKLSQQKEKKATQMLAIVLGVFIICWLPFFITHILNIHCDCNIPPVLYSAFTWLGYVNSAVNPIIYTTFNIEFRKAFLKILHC
# experiment.summary: Displacement of [3H]-N-methylspiperone from human dopamine D2 receptor expressed in HEK293 cells after 1 hr by MicroBeta microplate counting method
Give measured Ki for each item. Keep answers brief.
Your answer is read as nM, so omit the unit and give the number.

Form field Ki for item `O=C(NCCCCN1CCN(c2cccc(Cl)c2Cl)CC1)c1cnc2ccccc2c1` on D(2) dopamine receptor (Homo sapiens, UniProt P14416): 10

Form field Ki for item `C[C@@H](O)CN1CCN(c2cccc(Cl)c2Cl)CC1` on D(2) dopamine receptor (Homo sapiens, UniProt P14416): 1400

Form field Ki for item O=C(NCCC(O)CN1CCN(c2cccc(Cl)c2Cl)CC1)c1cnc2ccccc2c1 (racemic) on D(2) dopamine receptor (Homo sapiens, UniProt P14416): 268

Form field Ki for item `O=C(NCC[C@@H](O)CN1CCN(c2cccc(Cl)c2Cl)CC1)c1cnc2ccccc2c1` on D(2) dopamine receptor (Homo sapiens, UniProt P14416): 202

Form field Ki for item `C[C@H](O)CN1CCN(c2cccc(Cl)c2Cl)CC1` on D(2) dopamine receptor (Homo sapiens, UniProt P14416): 317

Form field Ki for item `O=C(NCC[C@H](O)CN1CCN(c2cccc(Cl)c2Cl)CC1)c1cnc2ccccc2c1` on D(2) dopamine receptor (Homo sapiens, UniProt P14416): 316

Form field Ki for item `CC[C@@H](O)CN1CCN(c2cccc(Cl)c2Cl)CC1` on D(2) dopamine receptor (Homo sapiens, UniProt P14416): 588

Form field Ki for item `CC[C@H](O)CN1CCN(c2cccc(Cl)c2Cl)CC1` on D(2) dopamine receptor (Homo sapiens, UniProt P14416): 93.1

====

# target.or.system: D(3) dopamine receptor (Homo sapiens, UniProt P35462)
# experiment.summary: Partial agonist activity at dopamine D3 receptor (unknown origin) expressed in HEK293 cells at 10 pM to 100 uM after 30 mins by beta-arrestin recruitment assay relative to dopamine
# Type: cell-based
Calls of active or inactive are those of the source. The calls are words filed in the database; no cut-off is given here.
readout: Activity

O=C(NCC[C@H](O)CN1CCN(c2cccc(Cl)c2Cl)CC1)c1cnc2ccccc2c1 : Active
O=C(NCC[C@@H](O)CN1CCN(c2cccc(Cl)c2Cl)CC1)c1cc2ccccc2[nH]1 : inactive
O=C(NCC[C@H](O)CN1CCN(c2cccc(Cl)c2Cl)CC1)c1cc2ccccc2[nH]1 : Active
CC[C@H](O)CN1CCN(c2cccc(Cl)c2Cl)CC1 : Active
CC[C@@H](O)CN1CCN(c2cccc(Cl)c2Cl)CC1 : inactive

Continue with the compound presented below.
The reported Activity of the compound `O=C(NCC[C@@H](O)CN1CCN(c2cccc(Cl)c2Cl)CC1)c1cnc2ccccc2c1` was inactive

====

Give measured Emax for each item. Keep answers brief.
# target.or.system: UniProt P35462
# experiment.summary: Partial agonist activity at dopamine D3 receptor (unknown origin) expressed in HEK293 cells at 10 pM to 100 uM after 2 mins by BRET-based Go activation assay relative to dopamine
# Format: cell-based
# conditions.used: 10 pM
Your answer is read as %, so omit the unit and give the number.

The reported Emax of the compound `O=C(NCCCCN1CCN(c2cccc(Cl)c2Cl)CC1)c1cnc2ccccc2c1` was 20.9

The reported Emax of the compound `O=C(NCC[C@@H](O)CN1CCN(c2cccc(Cl)c2Cl)CC1)c1cc2ccccc2[nH]1` was 14.9

The reported Emax of the compound `O=C(NCC[C@H](O)CN1CCN(c2cccc(Cl)c2Cl)CC1)c1cc2ccccc2[nH]1` was 55.7

The reported Emax of the compound `O=C(NCC[C@@H](O)CN1CCN(c2cccc(Cl)c2Cl)CC1)c1cnc2ccccc2c1` was 19.9

The reported Emax of the compound `CC[C@H](O)CN1CCN(c2cccc(Cl)c2Cl)CC1` was 58.6

The reported Emax of the compound `O=C(NCC[C@H](O)CN1CCN(c2cccc(Cl)c2Cl)CC1)c1cnc2ccccc2c1` was 53.9

The reported Emax of the compound `CC[C@@H](O)CN1CCN(c2cccc(Cl)c2Cl)CC1` was 11.6

====

# Species: Homo sapiens
# experiment.summary: Selectivity ratio of Ki for human dopamine D2 receptor to Ki for human dopamine D3 receptor
readout: Ratio Ki
Reply: number alone, nothing else.

The reported Ratio Ki of the compound `O=C(NCCCCN1CCN(c2cccc(Cl)c2Cl)CC1)c1cnc2ccccc2c1` was 58

The reported Ratio Ki of the compound `CC[C@H](O)CN1CCN(c2cccc(Cl)c2Cl)CC1` was 3

The reported Ratio Ki of the compound `C[C@@H](O)CN1CCN(c2cccc(Cl)c2Cl)CC1` was 4

The reported Ratio Ki of the compound `O=C(NCC[C@@H](O)CN1CCN(c2cccc(Cl)c2Cl)CC1)c1cnc2ccccc2c1` was 49

The reported Ratio Ki of the compound `O=C(NCC[C@H](O)CN1CCN(c2cccc(Cl)c2Cl)CC1)c1cnc2ccccc2c1` was 14
